Attribution: paper PMC2926950

Target: T1, hDMX_(1-200) (human, UniProt O15151 1-200)
T1 sequence (looked up): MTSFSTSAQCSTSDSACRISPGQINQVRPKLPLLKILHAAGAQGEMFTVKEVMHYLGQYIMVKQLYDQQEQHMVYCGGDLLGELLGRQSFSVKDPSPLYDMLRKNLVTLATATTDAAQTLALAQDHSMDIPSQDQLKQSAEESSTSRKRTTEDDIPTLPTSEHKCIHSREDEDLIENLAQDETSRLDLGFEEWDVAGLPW
Assay: fluorescence polarisation
pIC50: −log10 of the molar value.
measuredParameter: pIC50

INSERT INTO results (binder, experimentalresult) VALUES
  ('MRPFMDYWEGLN [p53 12/1]', 5.41);
